# System: BEN
# experimental_protocol: relative viability (nuclei count vs DMSO), 5 days (fraction); higher = more cells survive
# test_parameters: first compound 0.1265 µM
The label is yes (1) for relative viability below 0.3 and no (0) for relative viability equal to or exceeding 0.3.

Answered examples (5):
molecule | answer_label
C[C@@H]1CN(CC(=O)Nc2ccc3c(c2)Cc2cccc(-c4cc(=O)cc(N5CCOCC5)o4)c2S3)C[C@H](C)O1 + Cc1nc(Nc2ncc(C(=O)Nc3c(C)cccc3Cl)s2)cc(N2CCN(CCO)CC2)n1 [Dasatinib] (partner 0.075 µM) | yes (1)
COc1cc(N2CCC(C(N)=O)CC2)ccc1Nc1nc(N)c(Cl)c(Nc2ccccc2S(=O)(=O)C(C)C)n1 [HG-5-88-01] + NC(=O)Nc1cc(-c2cccc(F)c2)sc1C(=O)N[C@H]1CCCNC1 [AZD7762] (partner 0.2 µM) | no (0)
Clc1ccc(Nc2nnc(Cc3ccncc3)c3ccccc23)cc1 [Vatalanib] + Nc1nc2[nH]cc(CCc3ccc(C(=O)N[C@@H](CCC(=O)O)C(=O)O)cc3)c2c(=O)[nH]1 [Pemetrexed] (partner 0.2 µM) | no (0)
Clc1ccc(Nc2nnc(Cc3ccncc3)c3ccccc23)cc1 [Vatalanib] + CC(=O)Nc1cccc(-n2c(=O)n(C3CC3)c(=O)c3c(Nc4ccc(I)cc4F)n(C)c(=O)c(C)c32)c1 [Trametinib] (partner 0.02 µM) | no (0)
C[C@@H]1CN(CC(=O)Nc2ccc3c(c2)Cc2cccc(-c4cc(=O)cc(N5CCOCC5)o4)c2S3)C[C@H](C)O1 + CC1(C)CCC(c2ccc(Cl)cc2)=C(CN2CCN(c3ccc(C(=O)NS(=O)(=O)c4ccc(N[C@H](CCN5CCOCC5)CSc5ccccc5)c(S(=O)(=O)C(F)(F)F)c4)cc3)CC2)C1 [Navitoclax] (partner 0.5 µM) | yes (1)

Hi there! Is relative viability for C[C@@H]1CN(CC(=O)Nc2ccc3c(c2)Cc2cccc(-c4cc(=O)cc(N5CCOCC5)o4)c2S3)C[C@H](C)O1 + C[C@]1(O)C[C@@H](c2nc(-c3ccc4ccc(-c5ccccc5)nc4c3)c3c(N)nccn32)C1 [Linsitinib] (partner 1 µM) below 0.3, do you know?
no (0)

How about this molecule: C[C@@H]1CN(CC(=O)Nc2ccc3c(c2)Cc2cccc(-c4cc(=O)cc(N5CCOCC5)o4)c2S3)C[C@H](C)O1 + COc1cccc2cc(-c3nc([C@H]4CC[C@H](C(=O)O)CC4)n4ncnc(N)c34)[nH]c12 [OSI-027] (partner 0.5 µM)
yes (1)

Repeat with Clc1ccc(Nc2nnc(Cc3ccncc3)c3ccccc23)cc1 [Vatalanib] + COc1cccc2cc(-c3nc([C@H]4CC[C@H](C(=O)O)CC4)n4ncnc(N)c34)[nH]c12 [OSI-027] (partner 0.5 µM)
no (0)

---

# Test system: A-427
# experimental_protocol: relative viability (nuclei count vs DMSO), 5 days (fraction); higher = more cells survive
# test_parameters: first compound 0.3162 µM
Catalogue of relative viability readings, one per entry.
Quick one: just the number, no unit, thanks!

Below, 3 molecules whose answers are already recorded.
molecule | readout_kind | reading
CC(C)Oc1cc(Nc2nc(N[C@@H](C)c3ccc(F)cn3)ncc2Cl)n[nH]1 [AZ23] + C[C@]1(O)C[C@@H](c2nc(-c3ccc4ccc(-c5ccccc5)nc4c3)c3c(N)nccn32)C1 [Linsitinib] (partner 1 µM) | relative viability | 1.16
CC(C)Oc1cc(Nc2nc(N[C@@H](C)c3ccc(F)cn3)ncc2Cl)n[nH]1 [AZ23] + Cc1cc(Nc2cc(N3CCN(C)CC3)nc(Sc3ccc(NC(=O)C4CC4)cc3)n2)n[nH]1 [Tozasertib] (partner 0.1 µM) | relative viability | 0.177
CC(C)Oc1cc(Nc2nc(N[C@@H](C)c3ccc(F)cn3)ncc2Cl)n[nH]1 [AZ23] + NC(=O)Nc1cc(-c2cccc(F)c2)sc1C(=O)N[C@H]1CCCNC1 [AZD7762] (partner 0.2 µM) | relative viability | 1.01

Could you tell me which relative viability is on file for CC(C)Oc1cc(Nc2nc(N[C@@H](C)c3ccc(F)cn3)ncc2Cl)n[nH]1 [AZ23] + CC(=O)Nc1cccc(-n2c(=O)n(C3CC3)c(=O)c3c(Nc4ccc(I)cc4F)n(C)c(=O)c(C)c32)c1 [Trametinib] (partner 0.02 µM) ?
0.684

Would you kindly repeat that for CC(C)Oc1cc(Nc2nc(N[C@@H](C)c3ccc(F)cn3)ncc2Cl)n[nH]1 [AZ23] + O=C(CCCCCCC(=O)Nc1ccccc1)NO [Vorinostat] (partner 1 µM) ?
0.988

---

# System: NCI-H1793
# experimental_protocol: relative viability (nuclei count vs DMSO), 5 days (fraction); higher = more cells survive
# test_parameters: first compound 0.4 µM
# key: entry, value: relative viability
Just the number, please, no unit after it.

Some solved cases for reference:
molecule | study_target | relative viability
Clc1ccc(Nc2nnc(Cc3ccncc3)c3ccccc23)cc1 [Vatalanib] + N=C(N)NC(=N)NCCc1ccccc1 [Phenformin] (partner 250 µM) | NCI-H1793 | 0.435
C[C@@H]1CN(CC(=O)Nc2ccc3c(c2)Cc2cccc(-c4cc(=O)cc(N5CCOCC5)o4)c2S3)C[C@H](C)O1 + O=C(c1cc(Cc2n[nH]c(=O)c3ccccc23)ccc1F)N1CCN(C(=O)C2CC2)CC1 [Olaparib] (partner 8 µM) | NCI-H1793 | 0.86
COc1cc(N2CCC(C(N)=O)CC2)ccc1Nc1nc(N)c(Cl)c(Nc2ccccc2S(=O)(=O)C(C)C)n1 [HG-5-88-01] + COc1cc2c(Oc3ccc(NC(=O)C4(C(=O)Nc5ccc(F)cc5)CC4)cc3F)ccnc2cc1OCCCN1CCOCC1 [Foretinib] (partner 0.25 µM) | NCI-H1793 | 0.615

Note: attention shifts to another entry.
# lookup: relative viability of COc1cc(N2CCC(C(N)=O)CC2)ccc1Nc1nc(N)c(Cl)c(Nc2ccccc2S(=O)(=O)C(C)C)n1 [HG-5-88-01] + CS(=O)(=O)CCNCc1ccc(-c2ccc3ncnc(Nc4ccc(OCc5cccc(F)c5)c(Cl)c4)c3c2)o1 [Lapatinib] (partner 2 µM)
0.607

---

# Tested on: EMC-BAC-2
# experimental_protocol: relative viability (nuclei count vs DMSO), 5 days (fraction); higher = more cells survive
# test_parameters: first compound 0.03162 µM
readout_kind: relative viability
Answer with a number only.

compound | reading
CC(C)Oc1cc(Nc2nc(N[C@@H](C)c3ccc(F)cn3)ncc2Cl)n[nH]1 [AZ23] + O=C(c1cc(Cc2n[nH]c(=O)c3ccccc23)ccc1F)N1CCN(C(=O)C2CC2)CC1 [Olaparib] (partner 8 µM) | 0.514

I'd like to know its relative viability. The compound in question is CC(C)Oc1cc(Nc2nc(N[C@@H](C)c3ccc(F)cn3)ncc2Cl)n[nH]1 [AZ23] + CC(=O)Nc1cccc(-n2c(=O)n(C3CC3)c(=O)c3c(Nc4ccc(I)cc4F)n(C)c(=O)c(C)c32)c1 [Trametinib] (partner 0.02 µM)
0.912

Same for CC(C)Oc1cc(Nc2nc(N[C@@H](C)c3ccc(F)cn3)ncc2Cl)n[nH]1 [AZ23] + CC(=O)c1c(C)c2cnc(Nc3ccc(N4CCNCC4)cn3)nc2n(C2CCCC2)c1=O [Palbociclib] (partner 0.5 µM)
0.523

Follow-up item: CC(C)Oc1cc(Nc2nc(N[C@@H](C)c3ccc(F)cn3)ncc2Cl)n[nH]1 [AZ23] + Cc1nc(Nc2ncc(C(=O)Nc3c(C)cccc3Cl)s2)cc(N2CCN(CCO)CC2)n1 [Dasatinib] (partner 0.075 µM)
0.381

---

# Test system: NCI-H1915
# experimental_protocol: relative viability (nuclei count vs DMSO), 5 days (fraction); higher = more cells survive
# test_parameters: first compound 0.03162 µM
readout_kind: relative viability

compound | relative viability
CC(C)Oc1cc(Nc2nc(N[C@@H](C)c3ccc(F)cn3)ncc2Cl)n[nH]1 [AZ23] + Cc1nc(NC(=O)N2CCC[C@H]2C(N)=O)sc1-c1ccnc(C(C)(C)C(F)(F)F)c1 [Alpelisib] (partner 2 µM) | 1.09
CC(C)Oc1cc(Nc2nc(N[C@@H](C)c3ccc(F)cn3)ncc2Cl)n[nH]1 [AZ23] + Nc1ncn([C@H]2C[C@H](O)[C@@H](CO)O2)c(=O)n1 [Decitabine] (partner 2 µM) | 0.272

# evaluate next
Under NCI-H1915: relative viability value of CC(C)Oc1cc(Nc2nc(N[C@@H](C)c3ccc(F)cn3)ncc2Cl)n[nH]1 [AZ23] + CS(=O)(=O)CCNCc1ccc(-c2ccc3ncnc(Nc4ccc(OCc5cccc(F)c5)c(Cl)c4)c3c2)o1 [Lapatinib] (partner 2 µM) ?
0.972

---

# Test system: NCI-H1975
# experimental_protocol: relative viability (nuclei count vs DMSO), 5 days (fraction); higher = more cells survive
# test_parameters: first compound 0.4 µM
readout_kind: relative viability
Note: the reply should be a number with no unit written.

compound | study_target | relative viability
COc1cc(N2CCC(C(N)=O)CC2)ccc1Nc1nc(N)c(Cl)c(Nc2ccccc2S(=O)(=O)C(C)C)n1 [HG-5-88-01] + CS(=O)(=O)CCNCc1ccc(-c2ccc3ncnc(Nc4ccc(OCc5cccc(F)c5)c(Cl)c4)c3c2)o1 [Lapatinib] (partner 2 µM) | NCI-H1975 | 0.723

Bench note: what relative viability did C[C@@H]1CN(CC(=O)Nc2ccc3c(c2)Cc2cccc(-c4cc(=O)cc(N5CCOCC5)o4)c2S3)C[C@H](C)O1 + O=C(CCCCCCC(=O)Nc1ccccc1)NO [Vorinostat] (partner 1 µM) show?
0.61

Clc1ccc(Nc2nnc(Cc3ccncc3)c3ccccc23)cc1 [Vatalanib] + CC(=O)c1c(C)c2cnc(Nc3ccc(N4CCNCC4)cn3)nc2n(C2CCCC2)c1=O [Palbociclib] (partner 0.5 µM) , same question.
0.768

What about COc1cc(N2CCC(C(N)=O)CC2)ccc1Nc1nc(N)c(Cl)c(Nc2ccccc2S(=O)(=O)C(C)C)n1 [HG-5-88-01] + CC(C)C[C@H](NC(=O)[C@H](Cc1ccccc1)NC(=O)c1cnccn1)B(O)O [Bortezomib] (partner 0.002 µM) ?
0.381

Try this compound too: C[C@@H]1CN(CC(=O)Nc2ccc3c(c2)Cc2cccc(-c4cc(=O)cc(N5CCOCC5)o4)c2S3)C[C@H](C)O1 + CCNC(=O)c1noc(-c2cc(C(C)C)c(O)cc2O)c1-c1ccc(CN2CCOCC2)cc1 [Luminespib] (partner 0.01 µM)
0.26

Would you mind doing Clc1ccc(Nc2nnc(Cc3ccncc3)c3ccccc23)cc1 [Vatalanib] + CC(C)C[C@H](NC(=O)[C@H](Cc1ccccc1)NC(=O)c1cnccn1)B(O)O [Bortezomib] (partner 0.002 µM) as well?
0.422

Try the compound Clc1ccc(Nc2nnc(Cc3ccncc3)c3ccccc23)cc1 [Vatalanib] + Cc1cc(Nc2cc(N3CCN(C)CC3)nc(Sc3ccc(NC(=O)C4CC4)cc3)n2)n[nH]1 [Tozasertib] (partner 0.1 µM)
0.726
